# Test system: UACC-62
# Protocol Details: NCI tumour cell line growth inhibition, 48 h
Calls of active or inactive are those of the source. Rule as the data show it: active = GI50 up to about 1.1 µM and inactive = higher.
Listing of entries alongside the reported GI50.

Study these solved cases before continuing.
Record request: GI50 value, item CC1(Cl)CC2C(CC1Sc1nnnn1-c1ccccc1)C2(C)C (stereo not given) 98.9 µM (inactive)

Record request: GI50 value, item CCCc1cn2c(/C=N/N=C(N)N)c(-c3c(OC)ccc(OC)c3[N+](=O)[O-])nc2s1 8.24 µM (inactive)

Record request: GI50 value, item C[C@]12CCNC(=O)C=C1CC[C@@H]1C2CC[C@@]2(C)C1CC[C@@H]2OC(=O)COc1ccc(N(CCCl)CCCl)cc1 (stereo not given in full) 1.28 µM (inactive)

Further cases:
Record request: GI50 value, item O=C1C(Cl)N(c2ccc([N+](=O)[O-])cc2)C1c1c[nH]c2ccccc12 (stereo not given) 51.3 µM (inactive)

Record request: GI50 value, item CC1(C)OCC(CO)(Nc2nc(N3CC3)nc(N3CC3)n2)CO1 3.15 µM (inactive)

From: ChEMBL document CHEMBL1201862
